experimentalTarget: thrombin (Homo sapiens)
Construct: yields the active alpha thrombin molecule which is a 295 amino acid polypeptide (human) composed of a heavy and light chain
assaySummary: Peptide microarray binding with fluorescently labelled thrombin
experimentalContext: DYLIGHT 650-Thrombin
experimentalReadout: Binding intensity of thrombin (100 μg/ml)

Test item RIRITDNMFSAGYKP [Thr_136_CS, thrombin derived peptide, Cysteine replaced by Serine] ; thrombin (Homo sapiens); reported Binding intensity of thrombin (100 μg/ml) was 5535

Test item SHNQRFVTYLGSKLG [Rnd_inter_155] ; thrombin (Homo sapiens); reported Binding intensity of thrombin (100 μg/ml) was 23646

Test item NITRSGIESQLWRSR [Thr_031_CS, thrombin derived peptide, Cysteine replaced by Serine] ; thrombin (Homo sapiens); reported Binding intensity of thrombin (100 μg/ml) was 18537

Test item ISMLEKIYIHPRYNW [Thr_111, thrombin derived peptide] ; thrombin (Homo sapiens); reported Binding intensity of thrombin (100 μg/ml) was 60199

Test item SGIESQLWRSRYPHK [Thr_032_CS, thrombin derived peptide, Cysteine replaced by Serine] ; thrombin (Homo sapiens); reported Binding intensity of thrombin (100 μg/ml) was 15079

Test item WCYVAGKPGDFGYCD [Thr_069, thrombin derived peptide] ; thrombin (Homo sapiens); reported Binding intensity of thrombin (100 μg/ml) was 3141

Test item LGNKKFVSGSRFVST [Rnd_inter_316] ; thrombin (Homo sapiens); reported Binding intensity of thrombin (100 μg/ml) was 12353

---

experimentalTarget: thrombin (Homo sapiens, UniProt P00734)
Construct: yields the active alpha thrombin molecule which is a 295 amino acid polypeptide (human) composed of a heavy and light chain
assaySummary: Thrombin stability testing: remaining clotting activity of 1000 IU/ml liquid thrombin after storage at 37° C.
Type: biochemical
experimentalContext: 0.5 mM peptide, 1000 IU/ml thrombin, 37° C., 0, 3 and 7 days
Bridges are numbered along the chain shown (N, C = ends). Where no end group is shown, it is not given here.
experimentalReadout: stabilization of thrombin activity (in words)

Please fill in: stabilization of thrombin activity (in words) reported for CKETWTANVLKC (disulfide 1-12 (inferred)) [SEQ ID NO:6, cyclized mutant gamma loop peptide] = inefficient

Please fill in: stabilization of thrombin activity (in words) reported for CKETWTAYVGKC (disulfide 1-12 (inferred)) [SEQ ID NO:5, cyclized mutant gamma loop peptide] = inefficient

Please fill in: stabilization of thrombin activity (in words) reported for CKNTWTANVGKC (disulfide 1-12 (inferred)) [SEQ ID NO:4, cyclized mutant gamma loop peptide] = inefficient

---

experimentalTarget: gamma loop of thrombin (Homo sapiens)
Construct: Fluorescein-labeled cyclic gamma-loop derived peptide; made in house; host or cells: chemical synthesis
assaySummary: Peptide microarray binding screen with fluorescent gamma loop peptide
experimentalContext: scale 0-65535
For each record, write down the corresponding Binding intensity of gamma loop.

Test item WCYVAGKPGDFGYCD [Thr_069, thrombin derived peptide] ; gamma loop of thrombin (Homo sapiens); reported Binding intensity of gamma loop was 50553 arbitrary units

Test item ISMLEKIYIHPRYNW [Thr_111, thrombin derived peptide] ; gamma loop of thrombin (Homo sapiens); reported Binding intensity of gamma loop was 32804 arbitrary units

Test item NITRSGIESQLWRSR [Thr_031_CS, thrombin derived peptide, Cysteine replaced by Serine] ; gamma loop of thrombin (Homo sapiens); reported Binding intensity of gamma loop was 40787 arbitrary units

Test item SGIESQLWRSRYPHK [Thr_032_CS, thrombin derived peptide, Cysteine replaced by Serine] ; gamma loop of thrombin (Homo sapiens); reported Binding intensity of gamma loop was 35117 arbitrary units

Test item SHNQRFVTYLGSKLG [Rnd_inter_155] ; gamma loop of thrombin (Homo sapiens); reported Binding intensity of gamma loop was 19539 arbitrary units

Test item RIRITDNMFSAGYKP [Thr_136_CS, thrombin derived peptide, Cysteine replaced by Serine] ; gamma loop of thrombin (Homo sapiens); reported Binding intensity of gamma loop was 25278 arbitrary units

Test item LGNKKFVSGSRFVST [Rnd_inter_316] ; gamma loop of thrombin (Homo sapiens); reported Binding intensity of gamma loop was 26628 arbitrary units
